From: patent US6462038B1

Biological target: ER (Homo sapiens)
Construct: expressed in transfected cells; host or cells: CV-1 cells
Sequence (P03372 whole entry): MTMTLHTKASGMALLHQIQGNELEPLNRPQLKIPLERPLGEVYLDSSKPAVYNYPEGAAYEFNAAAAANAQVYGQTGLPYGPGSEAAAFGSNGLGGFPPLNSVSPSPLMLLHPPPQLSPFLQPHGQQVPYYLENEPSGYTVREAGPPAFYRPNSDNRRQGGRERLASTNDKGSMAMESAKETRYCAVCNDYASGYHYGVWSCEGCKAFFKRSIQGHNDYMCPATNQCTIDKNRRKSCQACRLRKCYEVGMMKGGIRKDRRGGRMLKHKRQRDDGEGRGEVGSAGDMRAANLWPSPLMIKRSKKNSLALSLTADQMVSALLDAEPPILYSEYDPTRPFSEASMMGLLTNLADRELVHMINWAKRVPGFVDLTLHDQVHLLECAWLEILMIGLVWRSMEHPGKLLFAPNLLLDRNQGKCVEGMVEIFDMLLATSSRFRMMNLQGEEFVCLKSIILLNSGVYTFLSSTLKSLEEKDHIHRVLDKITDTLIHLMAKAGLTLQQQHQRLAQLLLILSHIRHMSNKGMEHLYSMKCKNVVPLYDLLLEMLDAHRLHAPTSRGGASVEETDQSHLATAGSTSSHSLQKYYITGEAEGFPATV
Assay: co-transfection assay, ER antagonist
Assay type: cell-based
Settings: Table 2; read-out: ER Potency Antag
recordedEndpoint: IC50

State, in one line, measured IC50 of CC(C)(O)C(=O)Nc1ccc([N+](=O)[O-])c(C(F)(F)F)c1 [Flut, 2-hydroxyflutamide, reference compound]
> 10 µM

###

Target: hAR (Homo sapiens)
Construct: expressed in transfected cells; host or cells: CV-1 cells (African green monkey kidney fibroblasts)
Sequence (P10275 1-920): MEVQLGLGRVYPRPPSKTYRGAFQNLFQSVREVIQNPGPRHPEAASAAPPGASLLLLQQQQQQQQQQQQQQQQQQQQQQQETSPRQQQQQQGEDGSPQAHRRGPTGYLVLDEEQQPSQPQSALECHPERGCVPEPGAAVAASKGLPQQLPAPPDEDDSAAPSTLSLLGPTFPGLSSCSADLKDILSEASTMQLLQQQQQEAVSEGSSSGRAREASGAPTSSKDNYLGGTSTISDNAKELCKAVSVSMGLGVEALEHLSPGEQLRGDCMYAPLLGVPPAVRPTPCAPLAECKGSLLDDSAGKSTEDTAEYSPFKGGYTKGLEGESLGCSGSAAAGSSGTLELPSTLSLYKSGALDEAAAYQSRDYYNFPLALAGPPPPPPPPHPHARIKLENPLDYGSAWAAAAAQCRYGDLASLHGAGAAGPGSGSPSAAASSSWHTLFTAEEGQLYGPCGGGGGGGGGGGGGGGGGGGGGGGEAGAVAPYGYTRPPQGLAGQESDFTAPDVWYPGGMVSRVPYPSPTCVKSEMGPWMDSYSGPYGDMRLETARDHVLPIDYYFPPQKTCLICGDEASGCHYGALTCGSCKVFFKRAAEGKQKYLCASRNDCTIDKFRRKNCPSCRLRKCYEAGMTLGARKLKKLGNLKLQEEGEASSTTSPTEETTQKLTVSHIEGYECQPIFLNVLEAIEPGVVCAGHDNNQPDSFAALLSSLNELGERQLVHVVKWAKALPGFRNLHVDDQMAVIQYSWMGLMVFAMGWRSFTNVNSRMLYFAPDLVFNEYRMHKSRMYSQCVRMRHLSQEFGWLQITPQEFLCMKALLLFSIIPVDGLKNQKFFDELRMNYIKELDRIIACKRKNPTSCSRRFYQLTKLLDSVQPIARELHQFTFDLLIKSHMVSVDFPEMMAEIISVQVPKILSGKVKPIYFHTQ
Experiment: co-transfection assay, AR agonist, CV-1 cells
Type: cell-based
Settings: hAR in CV-1 cells; relative to maximum LUC production by reference agonist
recordedEndpoint: AR Agonist CV-1 Cells Efficacy (%)

Look up and report measured AR Agonist CV-1 Cells Efficacy (%) for this entry: O=c1cc(C(F)(F)F)c2cc3c(cc2[nH]1)OCC(CO)N3CC(F)(F)F (racemic) [Compound 130]
48%

Retrieve AR Agonist CV-1 Cells Efficacy (%) measured for COCC1COc2cc3[nH]c(=O)cc(C(F)(F)F)c3cc2N1CC(F)(F)F (racemic) [Compound 132] and print it.
72%
